Can you tell me LD50 at 168 h for the items I'm about to list?
# Test description: Acute toxicity, mortality within 7 days among NMRI mice after single administration
# Assay conditions: in vivo, iv, mouse

Lookup: Entry CCCCn1c(=O)n(CCCC(O)CO)c(=O)c2c1ncn2C (stereo not drawn) has what LD50 at 168 h?
Found: > 200 mg/kg

Lookup: Entry CCn1c(=O)c2c(ncn2CC)n(CCCCC(O)CO)c1=O (stereo not drawn) has what LD50 at 168 h?
Found: > 300 mg/kg

Lookup: Entry CCCn1c(=O)c2c(ncn2CCCC(O)C(C)O)n(CC)c1=O (stereo not drawn) has what LD50 at 168 h?
Found: > 200 mg/kg
